src = patent US11419945B2

Some molecules, each annotated with its measured ka.
- Tested on: Cyno in house BCMA
- Sequence (as listed by the source): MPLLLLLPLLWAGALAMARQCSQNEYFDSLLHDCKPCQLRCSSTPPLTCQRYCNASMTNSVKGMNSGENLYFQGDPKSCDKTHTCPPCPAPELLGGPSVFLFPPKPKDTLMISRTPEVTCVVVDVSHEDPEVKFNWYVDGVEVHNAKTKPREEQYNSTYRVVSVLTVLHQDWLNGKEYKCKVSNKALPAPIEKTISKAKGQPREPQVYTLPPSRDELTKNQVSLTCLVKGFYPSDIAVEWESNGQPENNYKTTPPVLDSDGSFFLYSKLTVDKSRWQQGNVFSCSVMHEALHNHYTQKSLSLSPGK
- test_summary: ProteOn analysis of CA8 chimeric and humanised constructs, cyno in house BCMA
- Format: binding
- experimental_parameters: Run 1, Cyno in house BCMA, 25° C., in M-1s-1 (unit assumed)
Respond with the number and no other words.

CA8 humanised J2M1: humanised CA8 anti-BCMA antibody, VH J2 (SEQ ID NO:15) + VL M1 (SEQ ID NO:33) (antibody, V domains shown, Humansed antibody sequence) VH: QVQLVQSGAEVKKPGSSVKVSCKASGYTFTNYWMHWVRQAPGQGLEWMGATYRGHSDTYYNQKFKGRVTITADKSTSTAYMELSSLRSEDTAVYYCTRGAIYNGYDVLDNWGQGTLVTVSS VL: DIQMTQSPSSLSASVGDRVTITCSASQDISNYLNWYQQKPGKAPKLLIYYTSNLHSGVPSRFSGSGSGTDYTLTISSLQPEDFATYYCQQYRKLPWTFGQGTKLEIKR = 2.96E+05

Consider the record given below.
Prompt line: ka for CA8 humanised J0M1: humanised CA8 anti-BCMA antibody, VH J0 (SEQ ID NO:11) + VL M1 (SEQ ID NO:33) (antibody, V domains shown, Humansed antibody sequence) VH: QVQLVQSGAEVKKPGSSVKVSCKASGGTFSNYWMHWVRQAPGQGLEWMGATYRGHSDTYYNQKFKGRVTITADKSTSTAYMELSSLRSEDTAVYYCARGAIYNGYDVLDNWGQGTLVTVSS VL: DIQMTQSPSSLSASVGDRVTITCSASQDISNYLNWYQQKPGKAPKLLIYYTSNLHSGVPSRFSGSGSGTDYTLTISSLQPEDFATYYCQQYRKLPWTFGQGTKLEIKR ?
Response line: 3.32E+05
